Molecular target: Alkaline phosphatase, placental type (Homo sapiens, UniProt P05187)
Sequence (P05187 whole entry, looked up): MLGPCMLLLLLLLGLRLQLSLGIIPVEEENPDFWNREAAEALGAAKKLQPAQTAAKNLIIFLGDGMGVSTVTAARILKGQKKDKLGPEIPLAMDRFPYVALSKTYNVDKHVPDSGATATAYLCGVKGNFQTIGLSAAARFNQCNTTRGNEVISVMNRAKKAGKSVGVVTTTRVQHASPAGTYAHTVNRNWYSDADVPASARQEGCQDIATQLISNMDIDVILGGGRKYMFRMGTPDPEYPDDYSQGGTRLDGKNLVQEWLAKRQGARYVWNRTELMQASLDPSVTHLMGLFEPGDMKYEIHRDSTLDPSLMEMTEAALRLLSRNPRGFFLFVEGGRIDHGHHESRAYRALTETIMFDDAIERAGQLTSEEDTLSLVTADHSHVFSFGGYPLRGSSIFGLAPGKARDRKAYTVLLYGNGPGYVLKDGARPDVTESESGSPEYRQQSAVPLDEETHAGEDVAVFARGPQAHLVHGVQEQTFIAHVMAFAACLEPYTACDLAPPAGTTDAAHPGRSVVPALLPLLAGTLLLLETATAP
Experiment: PLAP enzyme activators, dose response, selectivity assay for human IAP activator project, biochemical, uHTS hits, luminescence (AID 488888)
Task for the reader: assign each of the following compounds its reported pEC50.
Worth noting: pEC50 values are minus log10 of concentrations stated in mol/L.

For the compound "Cc1c(C(=O)NN=Cc2ccc(O)cc2O)[nH][nH]c1=O" , what pEC50 is on record?
4.88

For the compound "O=Nc1[nH]c(=O)c(CC(=O)c2ccccc2)nc1NO" , what pEC50 is on record?
5.01

For the compound CCOC(=O)c1c(C)[nH]c(C(=O)N/N=C/C2C=C([N+](=O)[O-])C=CC2=O)c1C (stereo unspecified) , what pEC50 is on record?
4.63

For the compound "O=c1c2ccccc2nc(N=NCc2c(O)ccc3ccccc23)n1O" , what pEC50 is on record?
4.45

For the compound Cc1cc(Br)ccc1SCC(=O)OCC(=O)C(C#N)c1nc2ccccc2[nH]1 (stereo unspecified) , what pEC50 is on record?
4.59

For the compound "C=c1[nH]n(-c2nc3ccccc3[nH]2)c(=O)c1=CN(C)C" , what pEC50 is on record?
4.82

For the compound "COc1cccc(C=NNC(=O)c2[nH][nH]c(=O)c2C)c1O" , what pEC50 is on record?
5.11

For the compound "O=C(Nn1c(O)csc1=S)C(=O)Nn1c(O)csc1=S" , what pEC50 is on record?
4.84

For the compound "CCc1ccc(CN=Nc2ncnc3nc[nH]c23)cc1" , what pEC50 is on record?
4.87

For the compound Cn1c(C(C#N)C(=O)c2ccc(Br)s2)nc2ccccc21 (stereo unspecified) , what pEC50 is on record?
4.21
